- assay.details: yeast display, Sf9 membrane polyspecificity reagent, FACS + sequencing; frameworks hold sequencing errors
parameter: polyreactivity (PSR sort gate)

input.sequence	parameter	result.value
QVQLVESGGGLVQAGGSLLLSCAASGSTFIPYAMGWYRQAPWKERELVAAITWSSGSTYYADSVKVRFTISRDNAKNTVFLQMNSLKTEDTAVYYCARDRYSVFDYDYWGQGTQVTVSS	polyreactivity (PSR sort gate)	low polyreactivity
QVQLVESGGGLVQAGGSLRLSCAASGRTFSANAMGWYRQAPGKERELVAAISSGGSTTYADSVKGRFTISRDNAKNTVYLQMNSLKPEDTAVYYCAAVWLSLFKGWVDTHEYDYWGQGTQVTVSS	polyreactivity (PSR sort gate)	low polyreactivity
QVQLVESGGGLVQAGGSLRLSCAASGSTFEYYAMGWYRQAPGKERELVAVITNGGSTNYADSVKGRFTISRDNAKNTVYLQKNSLKPEDTAVYYCNAERRVFYYFDYDFWGLGTQVTVSS	polyreactivity (PSR sort gate)	low polyreactivity
QVKLVESGGGLVQAGGSLRLSCAASGFTFISNAMGWYRQAPGKERELVAAISSSGGRTYYADSVKGRFTISRDNAKNTVYLQMNSLKPEDTAVYYCNADRSLLYSRKIEYDYWGQGTQVTVSS	polyreactivity (PSR sort gate)	low polyreactivity
QDQLVESGGGLFKAGGSLRLSCAASGFIFSHYAMGWYRQAPGKERELVADISRSGTSTYYADSVTGRFTISRDNAKNTVYLQMNSLKPEDTAVYYFAKEYFFRGFNYRYDYWGQVTQVTVSS	polyreactivity (PSR sort gate)	high polyreactivity
QEQLQESGGGLVQAGGSLRLSCAASGYISSWYPMGWYRQAPGKEREFVATIAPGATTYYADSVKGRFTISRDYAKNTVYLQMNSLTPEDTAVYYCAAGPENNDFYSYWGQGTQVTVSS	polyreactivity (PSR sort gate)	low polyreactivity
QVQLVESGGCLVQAGGRLRLSCAASGSTFAYYSMGWDRQAPGKERELVAAITDSGGSTYYADSVKGRFTISRDNAKNTVYLQMNSLIPEDTAVYYCAVYGPWAYYPMGYWGQGSQVTVSS	polyreactivity (PSR sort gate)	low polyreactivity
QVQLVESGGGLVQAGGSLRLSCAASGSTFPYYVMGRYRQAPGKERELVAAITRSTGTTYYADSVKGRFTISRDNAKNTVYLQMNSLKPEDTAVYYCAARSSSSPRWYGGDYWGQGTQVTVSS	polyreactivity (PSR sort gate)	low polyreactivity
QVQLVESGGGLVQAGGSLRLSCAASGITFWNYAMGWYRQAPGKERELVAAISYSGGSTYYADSVKGRFTISRDNAKNTVYLQMNSLKPEDTAVYYCAATLPTNWVRYEYWGQGTQVTVSS	polyreactivity (PSR sort gate)	low polyreactivity
QVQLVESGGGLVQAGGSLRLSCAASGSILGGNAKGWYRQAPGKERELVAAITFSGGGTYYADSVKGRFTISRDNAKNTVYLQMNSLKPEDTAVYYCAADKDGYTYEFDYWGQGTQVTVSS	polyreactivity (PSR sort gate)	low polyreactivity
QVQLVESGGGLVQAGGSLRLSCAASGFTFGRYTMGWYRQAPGKERELVAAISWSGGSTYYADSVKGRFTISRDNAKNTVYLQMNSLKPEDTAVYYCAKVFRGGRGDYWGQGTQVTVSS	polyreactivity (PSR sort gate)	high polyreactivity

====

- assay.details: yeast display, Sf9 membrane polyspecificity reagent, FACS + sequencing; frameworks hold sequencing errors

input.sequence	polyreactivity (PSR sort gate)
QVQLVESGGGLVQAGGSLRLSCAASGFTFYVNAMGWYRQATGKERELVAAISSRGGSTYYADSVKGRFTISRDNAKNTVYLQMNSLKPEDTAVYYCNRVRDQRRYEYWGQGTQVTVSS	high polyreactivity
QVQLVESGRGLVQAGGSLRLRCAASGYTFTRYAMGWYRQAPRKESELVAAISTSGGRTYYSDSEKGRFTISRDNAKNTVYLQMNRLKPEDTAVYSCAAPIRDGRYDYWGQGTQVTVSS	high polyreactivity

The reported measurements were obtained from the nanobody polyreactivity screen of Harvey et al. (2022).
